Each recorded value in this set is attributed to ChEMBL document CHEMBL5291721.

- assay-system: Voltage-gated inwardly rectifying potassium channel KCNH2 (Homo sapiens, UniProt Q12809); also: assay procedure not described here
- Sequence (Q12809 whole entry): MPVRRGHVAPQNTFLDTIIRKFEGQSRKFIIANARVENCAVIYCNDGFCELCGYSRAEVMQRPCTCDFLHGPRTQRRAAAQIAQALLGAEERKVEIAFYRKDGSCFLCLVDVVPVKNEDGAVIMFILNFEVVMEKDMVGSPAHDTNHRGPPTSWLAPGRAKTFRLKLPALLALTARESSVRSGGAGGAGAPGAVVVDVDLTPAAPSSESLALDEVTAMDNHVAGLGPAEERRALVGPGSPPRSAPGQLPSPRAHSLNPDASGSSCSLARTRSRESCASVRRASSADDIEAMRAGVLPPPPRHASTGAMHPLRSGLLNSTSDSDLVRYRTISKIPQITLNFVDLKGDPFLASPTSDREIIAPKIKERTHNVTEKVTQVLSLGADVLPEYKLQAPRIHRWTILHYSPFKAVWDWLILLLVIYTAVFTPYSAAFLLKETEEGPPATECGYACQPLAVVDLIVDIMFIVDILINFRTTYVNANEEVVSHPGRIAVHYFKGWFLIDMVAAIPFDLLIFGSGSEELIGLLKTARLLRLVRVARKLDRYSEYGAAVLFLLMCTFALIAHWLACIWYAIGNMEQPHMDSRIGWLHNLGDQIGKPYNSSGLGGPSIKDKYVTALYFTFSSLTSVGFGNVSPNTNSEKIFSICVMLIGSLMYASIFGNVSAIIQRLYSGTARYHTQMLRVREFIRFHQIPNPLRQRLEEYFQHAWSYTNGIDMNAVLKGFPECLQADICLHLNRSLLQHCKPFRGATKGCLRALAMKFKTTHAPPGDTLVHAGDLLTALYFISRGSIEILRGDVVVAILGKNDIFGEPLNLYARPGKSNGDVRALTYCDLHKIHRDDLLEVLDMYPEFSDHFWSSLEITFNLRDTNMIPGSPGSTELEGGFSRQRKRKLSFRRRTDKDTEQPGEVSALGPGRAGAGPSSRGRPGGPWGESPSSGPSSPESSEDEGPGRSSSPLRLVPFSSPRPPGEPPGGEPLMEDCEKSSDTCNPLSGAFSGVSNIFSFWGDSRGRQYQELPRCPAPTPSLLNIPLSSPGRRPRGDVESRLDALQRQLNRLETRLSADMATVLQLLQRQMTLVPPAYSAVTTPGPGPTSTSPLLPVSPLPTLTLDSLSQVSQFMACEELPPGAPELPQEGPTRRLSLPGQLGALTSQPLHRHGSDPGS
- Assay type: functional
Recorded AC50 for the following compounds
readout-label: AC50

[[record]]
compound = "Cc1ccccc1-n1c(CF)nc2ccc(N)cc2c1=O"
readout_label = "AC50"
measurement = "> 30 µM"

[[record]]
compound = "CC=CC1=C(C(=O)O)N2C(=O)[C@@H](NC(=O)[C@H](N)c3ccc(O)cc3)[C@H]2SC1"
readout_label = "AC50"
measurement = "> 30 µM"

[[record]]
compound = "Cc1ccsc1C(=CCCN1CCC[C@@H](C(=O)O)C1)c1sccc1C"
readout_label = "AC50"
measurement = "> 30 µM"

[[record]]
compound = "O=C1c2ccccc2C(=O)C1c1ccccc1"
readout_label = "AC50"
measurement = "> 30 µM"

[[record]]
compound = "COC(=O)[C@@H](N)Cc1ccc(O)c(O)c1"
readout_label = "AC50"
measurement = "> 30 µM"

[[record]]
compound = "COc1ccc(C2C(=O)c3ccccc3C2=O)cc1"
readout_label = "AC50"
measurement = "> 30 µM"

[[record]]
compound = "CCC1=C[C@@H]2CN(C1)Cc1c([nH]c3ccccc13)[C@@](C(=O)OC)(c1cc3c(cc1OC)N(C)[C@H]1[C@@](O)(C(=O)OC)[C@H](OC(C)=O)[C@]4(CC)C=CCN5CC[C@]31[C@@H]54)C2"
readout_label = "AC50"
measurement = "5.5 µM"

[[record]]
compound = "NC(=O)[C@@H]1CC[C@@H]2CN1C(=O)N2OS(=O)(=O)O"
readout_label = "AC50"
measurement = "> 30 µM"

[[record]]
compound = "CC(=O)O[C@H]1Cc2ccccc2N(C(N)=O)c2ccccc21 [ESLICARBAZEPINE ACETATE]"
readout_label = "AC50"
measurement = "> 30 µM"

[[record]]
compound = "O=C(NCCO[N+](=O)[O-])c1cccnc1"
readout_label = "AC50"
measurement = "> 30 µM"

[[record]]
compound = "CN[C@]1(c2ccccc2Cl)CCCCC1=O"
readout_label = "AC50"
measurement = "> 30 µM"

[[record]]
compound = "CN(C)Cc1nnc2n1-c1ccc(Cl)cc1C(c1ccccc1)=NC2"
readout_label = "AC50"
measurement = "> 30 µM"

[[record]]
compound = "Cc1cc2c(cc1S(N)(=O)=O)S(=O)(=O)CCC2"
readout_label = "AC50"
measurement = "> 30 µM"

[[record]]
compound = "CC(CN(C)C)C(C)(O)Cc1ccc(Cl)cc1 (centres undefined)"
readout_label = "AC50"
measurement = "8.45 µM"

[[record]]
compound = "COc1cc(C(=O)OCc2cccc(COC(=O)c3cc(OC)c(OC)c(OC)c3)n2)cc(OC)c1OC"
readout_label = "AC50"
measurement = "> 30 µM"

[[record]]
compound = "CO/N=C(\\C(=O)N[C@@H]1C(=O)N2C(C(=O)O)=CCS[C@H]12)c1csc(N)n1"
readout_label = "AC50"
measurement = "> 30 µM"

[[record]]
compound = "COc1c2occc2c(OC)c2c(=O)cc(C)oc12"
readout_label = "AC50"
measurement = "> 30 µM"

[[record]]
compound = "COc1ccc2[nH]c([S+]([O-])Cc3ncc(C)c(OC)c3C)nc2c1 (centres undefined)"
readout_label = "AC50"
measurement = "17 µM"

[[record]]
compound = "CC1(C)O[C@@H]2C[C@H]3[C@@H]4C[C@H](F)C5=CC(=O)C=C[C@]5(C)[C@@]4(F)[C@@H](O)C[C@]3(C)[C@]2(C(=O)CO)O1 [FLUOCINOLONE ACETONIDE]"
readout_label = "AC50"
measurement = "> 30 µM"


----------
Assay read-out AC50; system under study: Gamma-aminobutyric acid receptor subunit alpha-1 (Rattus norvegicus). Also: assay procedure not described here.
Sequence (P62813 whole entry): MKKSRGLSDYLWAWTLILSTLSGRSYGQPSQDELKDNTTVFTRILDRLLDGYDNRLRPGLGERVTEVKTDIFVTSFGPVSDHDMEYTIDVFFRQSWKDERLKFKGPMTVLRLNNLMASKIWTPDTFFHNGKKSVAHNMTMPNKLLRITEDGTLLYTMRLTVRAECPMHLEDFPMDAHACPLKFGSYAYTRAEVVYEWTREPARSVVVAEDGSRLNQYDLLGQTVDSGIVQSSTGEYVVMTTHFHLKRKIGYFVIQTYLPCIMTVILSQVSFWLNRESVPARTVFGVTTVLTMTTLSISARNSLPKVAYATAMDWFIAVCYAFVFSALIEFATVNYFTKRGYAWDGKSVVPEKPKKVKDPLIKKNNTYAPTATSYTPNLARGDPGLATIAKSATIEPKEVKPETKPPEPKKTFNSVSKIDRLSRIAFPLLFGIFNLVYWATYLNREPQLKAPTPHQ
readout-label: AC50

[[record]]
molecule = "O=C(O)c1ccc(NC(=O)[C@H](Cc2ccc(O)cc2)NC(=O)c2ccccc2)cc1 [BENTIROMIDE]"
assay_system = "Gamma-aminobutyric acid receptor subunit alpha-1 (Rattus norvegicus)"
readout_label = "AC50"
measurement = "> 10 µM"

[[record]]
molecule = "CC(=O)O[C@]1(C(C)=O)CC[C@H]2[C@@H]3C=C(Cl)C4=CC(=O)[C@@H]5C[C@@H]5[C@]4(C)[C@H]3CC[C@@]21C [CYPROTERONE ACETATE]"
assay_system = "Gamma-aminobutyric acid receptor subunit alpha-1 (Rattus norvegicus)"
readout_label = "AC50"
measurement = "> 10 µM"

[[record]]
molecule = "O=C(O)Cc1ccccc1Oc1ccc(Cl)cc1Cl"
assay_system = "Gamma-aminobutyric acid receptor subunit alpha-1 (Rattus norvegicus)"
readout_label = "AC50"
measurement = "> 10 µM"

[[record]]
molecule = "COc1ccc([C@@H]2CC(=O)c3c(O)cc(O)cc3O2)cc1O"
assay_system = "Gamma-aminobutyric acid receptor subunit alpha-1 (Rattus norvegicus)"
readout_label = "AC50"
measurement = "> 10 µM"

[[record]]
molecule = "O=C(O)c1cccnc1Nc1cccc(C(F)(F)F)c1"
assay_system = "Gamma-aminobutyric acid receptor subunit alpha-1 (Rattus norvegicus)"
readout_label = "AC50"
measurement = "> 10 µM"

[[record]]
molecule = "O=C(c1cc(Cc2n[nH]c(=O)c3ccccc23)ccc1F)N1CCN(C(=O)C2CC2)CC1"
assay_system = "Gamma-aminobutyric acid receptor subunit alpha-1 (Rattus norvegicus)"
readout_label = "AC50"
measurement = "> 10 µM"

[[record]]
molecule = "COc1cc(C(=O)NC2CCCNC2)cc(OC)c1OC (centres undefined) [TROXIPIDE]"
assay_system = "Gamma-aminobutyric acid receptor subunit alpha-1 (Rattus norvegicus)"
readout_label = "AC50"
measurement = "> 30 µM"

[[record]]
molecule = "CCCN1CC(NS(=O)(=O)N(CC)CC)CC2Cc3c(O)cccc3CC21 (centres undefined) [QUINAGOLIDE]"
assay_system = "Gamma-aminobutyric acid receptor subunit alpha-1 (Rattus norvegicus)"
readout_label = "AC50"
measurement = "> 30 µM"

[[record]]
molecule = "CC(CN(C)C)C(C)(O)Cc1ccc(Cl)cc1 (centres undefined)"
assay_system = "Gamma-aminobutyric acid receptor subunit alpha-1 (Rattus norvegicus)"
readout_label = "AC50"
measurement = "> 10 µM"

[[record]]
molecule = "COc1ccc2cc(CCC(C)=O)ccc2c1"
assay_system = "Gamma-aminobutyric acid receptor subunit alpha-1 (Rattus norvegicus)"
readout_label = "AC50"
measurement = "> 10 µM"

[[record]]
molecule = "CCN1CC(CCN2CCOCC2)C(c2ccccc2)(c2ccccc2)C1=O (centres undefined)"
assay_system = "Gamma-aminobutyric acid receptor subunit alpha-1 (Rattus norvegicus)"
readout_label = "AC50"
measurement = "> 30 µM"

[[record]]
molecule = "C[N+](C)(C)CCOP(=O)([O-])OC[C@H](O)CO"
assay_system = "Gamma-aminobutyric acid receptor subunit alpha-1 (Rattus norvegicus)"
readout_label = "AC50"
measurement = "> 30 µM"

[[record]]
molecule = "CC=CC1=C(C(=O)O)N2C(=O)[C@@H](NC(=O)[C@H](N)c3ccc(O)cc3)[C@H]2SC1"
assay_system = "Gamma-aminobutyric acid receptor subunit alpha-1 (Rattus norvegicus)"
readout_label = "AC50"
measurement = "> 30 µM"

[[record]]
molecule = "COc1cc(C(=O)NS(=O)(=O)c2ccccc2C)ccc1Cc1cn(C)c2ccc(NC(=O)OC3CCCC3)cc12"
assay_system = "Gamma-aminobutyric acid receptor subunit alpha-1 (Rattus norvegicus)"
readout_label = "AC50"
measurement = "> 10 µM"

[[record]]
molecule = "CN[C@]1(c2ccccc2Cl)CCCCC1=O"
assay_system = "Gamma-aminobutyric acid receptor subunit alpha-1 (Rattus norvegicus)"
readout_label = "AC50"
measurement = "> 30 µM"

[[record]]
molecule = "CC(=O)c1ccc(S(=O)(=O)NC(=O)NC2CCCCC2)cc1 [ACETOHEXAMIDE]"
assay_system = "Gamma-aminobutyric acid receptor subunit alpha-1 (Rattus norvegicus)"
readout_label = "AC50"
measurement = "> 10 µM"

[[record]]
molecule = "Cn1c(=O)c2c(ncn2CCOC(=O)C(C)(C)Oc2ccc(Cl)cc2)n(C)c1=O [THEOFIBRATE]"
assay_system = "Gamma-aminobutyric acid receptor subunit alpha-1 (Rattus norvegicus)"
readout_label = "AC50"
measurement = "> 30 µM"

[[record]]
molecule = "CC(C)(C)NCC(O)c1ccccc1Cl (centres undefined)"
assay_system = "Gamma-aminobutyric acid receptor subunit alpha-1 (Rattus norvegicus)"
readout_label = "AC50"
measurement = "> 30 µM"

[[record]]
molecule = "O=C1Nc2ccc(Cl)cc2C(c2ccccc2Cl)=NC1O (centres undefined)"
assay_system = "Gamma-aminobutyric acid receptor subunit alpha-1 (Rattus norvegicus)"
readout_label = "AC50"
measurement = "> 10 µM"

[[record]]
molecule = "C[N+](C)(C)CCOP(=O)(O)OP(=O)([O-])OC[C@H]1O[C@@H](n2ccc(N)nc2=O)[C@H](O)[C@@H]1O"
assay_system = "Gamma-aminobutyric acid receptor subunit alpha-1 (Rattus norvegicus)"
readout_label = "AC50"
measurement = "> 30 µM"

[[record]]
molecule = "O=C(CCCN1CCC(O)(c2ccc(Br)cc2)CC1)c1ccc(F)cc1"
assay_system = "Gamma-aminobutyric acid receptor subunit alpha-1 (Rattus norvegicus)"
readout_label = "AC50"
measurement = "> 30 µM"

[[record]]
molecule = "CC(C)[C@@H](C)/C=C/[C@@H](C)[C@H]1CC[C@H]2/C(=C/C=C3\\C[C@@H](O)CC[C@@H]3C)CCC[C@]12C [DIHYDROTACHYSTEROL]"
assay_system = "Gamma-aminobutyric acid receptor subunit alpha-1 (Rattus norvegicus)"
readout_label = "AC50"
measurement = "> 10 µM"

[[record]]
molecule = "Cc1ccc(C)c(OCCCC(C)(C)C(=O)O)c1"
assay_system = "Gamma-aminobutyric acid receptor subunit alpha-1 (Rattus norvegicus)"
readout_label = "AC50"
measurement = "> 10 µM"

[[record]]
molecule = "Cc1cccc(C)c1NC(=O)CC12CCCN1CCC2 [PILSICAINIDE]"
assay_system = "Gamma-aminobutyric acid receptor subunit alpha-1 (Rattus norvegicus)"
readout_label = "AC50"
measurement = "> 30 µM"

